For each record, write down the corresponding self-aminoacylation.
test system: biotinyl-Phe-oxazolone; assay: self-aminoacylation, catalytic enhancement (BFO) (fold over background); higher = more active; k-Seq, kA / k0A0; sequences stand for … in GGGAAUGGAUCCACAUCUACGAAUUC…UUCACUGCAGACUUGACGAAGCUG
Fewer inactive variants are shown than the library holds.
Numbers only.

AAUUUUGCUAAUAGUCGUAAG [Fam3.1 aminoacylation ribozyme variant]    10.9
AUACACCUACGUCAUCGGGUG [Fam2.2 aminoacylation ribozyme variant]    31.8
AUUACGCUGGUCAUCGAGUGC [Fam2.1 aminoacylation ribozyme variant]    1.4
AUUACCCCGGUCAUCGUGUGA [Fam2.1 aminoacylation ribozyme variant]    16.2
ACUCACCUAGGUCAUAGGGUG [Fam2.2 aminoacylation ribozyme variant]    1.46

Consider the following items and state reported self-aminoacylation for each.
1. CUACUUCAAACAAGCGGGCUG [Fam1A.1 aminoacylation ribozyme variant]
2. CUUCUUCAAACAAUCGGUCUC [Fam1A.1 aminoacylation ribozyme variant]
3. CGACACUUCAAGCAAUCGAUC [Fam1B.1 aminoacylation ribozyme variant]
4. CUAAUUCAAUCAAUCGGUCUG [Fam1A.1 aminoacylation ribozyme variant]
5. CUACUUCAAACAAUCGGUUUA [Fam1A.1 aminoacylation ribozyme variant]

Output line:
[0.943, 28.6, 0.965, 4.62, 4.11]

====

system: biotinyl-Val-oxazolone; assay: self-aminoacylation, catalytic enhancement (BVO) (fold over background); higher = more active; k-Seq, kA / k0A0; sequences stand for … in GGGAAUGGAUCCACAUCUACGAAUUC…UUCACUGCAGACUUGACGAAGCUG
This sample holds only a part of the variants without activity.
measureName: self-aminoacylation
Give bare numbers.

AAGUUUGCUAAUAGUCACAAG [Fam3.1 aminoacylation ribozyme variant]    1.35
ACACACUUCAAGCAAUCGUUC [Fam1B.1 aminoacylation ribozyme variant]    1.23
AUAACCCUGGACAUCGAGUGA [Fam2.1 aminoacylation ribozyme variant]    2.47

Consider the following items and state reported self-aminoacylation for each.
1. AUCACCCUGGUCAUAGAGUGA [Fam2.1 aminoacylation ribozyme variant]
2. AAGUUUGCUACUACUCGCAAG [Fam3.1 aminoacylation ribozyme variant]

Output line:
1: 4.92; 2: 0.855

====

test system: biotinyl-Trp-oxazolone; assay: self-aminoacylation, catalytic enhancement (BWO) (fold over background); higher = more active; k-Seq, kA / k0A0; sequences stand for … in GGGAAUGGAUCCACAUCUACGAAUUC…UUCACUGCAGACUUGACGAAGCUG
Fewer inactive variants are shown than the library holds.
For each record, write down the corresponding self-aminoacylation.
Give bare numbers.

ACACACUUCAAGCAAUCGUUC [Fam1B.1 aminoacylation ribozyme variant]    1.21
CUACUUCUAACAAUCGCUCUG [Fam1A.1 aminoacylation ribozyme variant]    0.498
AUUCCCCUAGUUCAUCGGGUG [Fam2.2 aminoacylation ribozyme variant]    10.2
AUUCACCUAGUCCAUCGGGUG [Fam2.2 aminoacylation ribozyme variant]    6.38
CCACACUUCCAGCAAUGGGUC [Fam1B.1 aminoacylation ribozyme variant]    0.884

Consider the following items and state reported self-aminoacylation for each.
1. CAACACUUCAAGCAAACGGUC [Fam1B.1 aminoacylation ribozyme variant]
2. CUACUUAAAAAAAUCGGUCUG [Fam1A.1 aminoacylation ribozyme variant]

Output line:
1: 0.739; 2: 0.49

Consider the following items and state reported self-aminoacylation for each.
1. AUUCACCUAGGUCAUCCGGUG [Fam2.2 aminoacylation ribozyme variant]
2. UCACACUUCAAGCAAUCGGAC [Fam1B.1 aminoacylation ribozyme variant]
3. AUUACCCAGGUCAUCGCGUGA [Fam2.1 aminoacylation ribozyme variant]
4. CUACUUCAAACAUACGGUCUG [Fam1A.1 aminoacylation ribozyme variant]
5. AAGGUUGCUAAUAGUGGCAAG [Fam3.1 aminoacylation ribozyme variant]

Output line:
1: 6.3; 2: 0.994; 3: 19.3; 4: 0.556; 5: 0.638

Consider the following items and state reported self-aminoacylation for each.
1. AUUACCAUGGUCAUCGGGUGA [Fam2.1 aminoacylation ribozyme variant]
2. CCACACGUGAAGCAAUCGGUC [Fam1B.1 aminoacylation ribozyme variant]
3. CUACUUCAAGCACUCGGUCUG [Fam1A.1 aminoacylation ribozyme variant]
4. AAGUUUGCUAAUAGUCGCGGG [Fam3.1 aminoacylation ribozyme variant]
5. AUGCACUUAGGUCAUCGGGUG [Fam2.2 aminoacylation ribozyme variant]
6. CUACUUCAAACAAUCGACCUG [Fam1A.1 aminoacylation ribozyme variant]

Output line:
16.2
1.39
1.28
4.82
7.92
0.661

====

test system: biotinyl-Leu-oxazolone; test: self-aminoacylation, catalytic enhancement (BLO) (fold over background); higher = more active; k-Seq, kA / k0A0; sequences stand for … in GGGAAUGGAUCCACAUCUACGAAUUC…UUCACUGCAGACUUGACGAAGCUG
Fewer inactive variants are shown than the library holds.
Please assign a class to every record based on measured self-aminoacylation, with ranges zone 1: < 1; zone 2: ≥ 1 and < 3; zone 3: ≥ 3

GAGUCUGCUAAUAGUCGCAAG [Fam3.1 aminoacylation ribozyme variant]    zone 2

Input line: Could you tell me which band CUACUCCAAACAAUCGGUGUG [Fam1A.1 aminoacylation ribozyme variant] belongs to?
Output line: zone 1

Input line: Could you tell me which band CUACUUAAGACAAUCGGUCUG [Fam1A.1 aminoacylation ribozyme variant] belongs to?
Output line: zone 1

Input line: Could you tell me which band CCGCACUUCAAGCAAUCGUUC [Fam1B.1 aminoacylation ribozyme variant] belongs to?
Output line: zone 1

Input line: Could you tell me which band AUUACCCCCGUCAUCGAGUGA [Fam2.1 aminoacylation ribozyme variant] belongs to?
Output line: zone 3

Input line: Could you tell me which band CUACUUCAAGCACUCGGUCUG [Fam1A.1 aminoacylation ribozyme variant] belongs to?
Output line: zone 2

====

test system: biotinyl-Phe-oxazolone; assay: self-aminoacylation, catalytic enhancement (BFO) (fold over background); higher = more active; k-Seq, kA / k0A0; sequences stand for … in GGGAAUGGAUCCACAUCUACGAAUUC…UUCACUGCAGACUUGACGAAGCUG
Variants at the floor of the assay were thinned out.
For each record, write down the corresponding self-aminoacylation.

# annotated cases, reported self-aminoacylation shown
AUACUUCAAACAAUAGGUCUG [Fam1A.1 aminoacylation ribozyme variant]    1.25
AAGUUUGCUAAUAGUUGCAUG [Fam3.1 aminoacylation ribozyme variant]    1.14
AAGUUUGCCAAUUGUCGCAAG [Fam3.1 aminoacylation ribozyme variant]    2.77
AAGUUUGCUGAGAGUCGCAAG [Fam3.1 aminoacylation ribozyme variant]    1.91
AUUCGCCUAGGUCAUCUGGUG [Fam2.2 aminoacylation ribozyme variant]    19.3
CUACUUCAAACAUACGGUCUG [Fam1A.1 aminoacylation ribozyme variant]    0.561
AUUCACUUAGGUCAUCGGGCG [Fam2.2 aminoacylation ribozyme variant]    4.38
AUUCUCUUAGGUCAUCGGGUG [Fam2.2 aminoacylation ribozyme variant]    77.6
AUUACCCUGCUAAUCGAGUGA [Fam2.1 aminoacylation ribozyme variant]    11.2
AGUACCCUUGUCAUCGAGUGA [Fam2.1 aminoacylation ribozyme variant]    18.4

Consider the following items and state reported self-aminoacylation for each.
1. AUUACCCUGGCCAUCGAGCGA [Fam2.1 aminoacylation ribozyme variant]
2. AUUCGCAUAGGUCAUCGGGUG [Fam2.2 aminoacylation ribozyme variant]
3. AUUAACCUAGGUCAUCGCGUG [Fam2.2 aminoacylation ribozyme variant]
4. UAGUUUGCCAAUAGUCGCAAG [Fam3.1 aminoacylation ribozyme variant]
5. GUACACUUCAAGCAAUCGGUC [Fam1B.1 aminoacylation ribozyme variant]
6. CGACUUCAAACAUUCGGUCUG [Fam1A.1 aminoacylation ribozyme variant]
7. CAACUUCAAACAAUCGGACUG [Fam1A.1 aminoacylation ribozyme variant]
8. AUUACCCUGGUCAUUGCGUGA [Fam2.1 aminoacylation ribozyme variant]

Output line:
[9.68, 66, 59.2, 2.96, 21.1, 8.04, 19.2, 108]

====

test system: biotinyl-Ile-oxazolone; experiment: self-aminoacylation, catalytic enhancement (BIO) (fold over background); higher = more active; k-Seq, kA / k0A0; sequences stand for … in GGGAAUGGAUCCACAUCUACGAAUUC…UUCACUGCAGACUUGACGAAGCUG
Fewer inactive variants are shown than the library holds.
measureName: self-aminoacylation
Give bare numbers.

# annotated cases, reported self-aminoacylation shown
GCACACUUCAAGCAAUCGGUG [Fam1B.1 aminoacylation ribozyme variant]    6.23
CCACACUUCAAGCACUCGGUG [Fam1B.1 aminoacylation ribozyme variant]    2.92
AAGUUAGCUUAUAGUCGCAAG [Fam3.1 aminoacylation ribozyme variant]    1.8

Consider the following items and state reported self-aminoacylation for each.
1. AAGUUUACUACUAGUCGCAAG [Fam3.1 aminoacylation ribozyme variant]
2. CUACAUCAACCAAUCGGUCUG [Fam1A.1 aminoacylation ribozyme variant]
3. AUUCACCUAUGUCCUCGGGUG [Fam2.2 aminoacylation ribozyme variant]
4. AUUACCCUGGUCGUCGAAUGA [Fam2.1 aminoacylation ribozyme variant]
5. CUACUCGAAACAAUCGGUCUG [Fam1A.1 aminoacylation ribozyme variant]

Output line:
[1.57, 0.643, 2.17, 0.785, 0.837]
